molecular target: SARS-CoV-2 NSP3 macrodomain (Severe acute respiratory syndrome coronavirus 2, UniProt P0DTD1)
pIC50: −log10 of the molar value.
result type: pIC50

Please review the following examples before continuing.
{"compound": "COC1OC(COP(=O)(O)OP(=O)(O)OCC2OC(n3cnc4c(N)ncnc43)C(O)C2O)C(O)C1OCc1ccccc1 (stereo not drawn)", "observed": "< 3.70"}
{"compound": "CON=C1C(COP(=O)(O)OP(=O)(O)OCC2OC(n3cnc4c(N)ncnc43)C(O)C2O)OC(OC)C1O (stereo not drawn)", "observed": "< 3.70"}

Kindly review the next compound as well.
# pIC50 of COC1OC(COP(=O)(O)OP(=O)(O)OCC2OC(n3cnc4c(N)ncnc43)C(O)C2O)C(F)C1O (stereo not drawn) = < 3.70
